Test system: CCRF-CEM
assay-procedure: Antiproliferative activity against human CCRF-CEM cells after 72 hrs by MTT assay
Assay type: functional, cell-based
observed-property: IC50

Name the recorded IC50 of the item `CC(C)C(=O)CC[C@@H](C(=O)O)[C@H]1[C@H](O)C[C@@]2(C)C3=CC[C@H]4C(C)(C)[C@@H](O)CC[C@]4(C)C3=CC[C@]12C` in your answer.
> 40 µM

Name the recorded IC50 of the item `CC(C)=CCC[C@@H](C(=O)O)[C@H]1[C@H](O)C[C@@]2(C)C3=C(CC[C@]12C)[C@@]1(C)CC[C@H](O)C(C)(C)[C@@H]1CC3` in your answer.
> 40 µM

Name the recorded IC50 of the item `C=C(CC[C@@H](C(=O)O)[C@H]1[C@H](O)C[C@@]2(C)C3=CC[C@H]4C(C)(C)[C@@H](OC(C)=O)CC[C@]4(C)C3=CC[C@]12C)C(C)C` in your answer.
2.7 µM

----------
Tested on: CCRF-CEM
assay-procedure: Antiproliferative activity against human CCRF-CEM cells after 72 hrs by MTT assay
Format: functional, cell-based
pIC50: −log10 of the molar value.
observed-property: pIC50

Name the recorded pIC50 of the item `CC(C)C(=O)CC[C@@H](C(=O)O)[C@H]1[C@H](O)C[C@@]2(C)C3=CC[C@H]4C(C)(C)[C@H](O)CC[C@]4(C)C3=CC[C@]12C` in your answer.
< 4.40

Name the recorded pIC50 of the item C=C(CC[C@@H](C(=O)O)[C@H]1[C@H](O)C[C@@]2(C)C3=CC[C@H]4C(C)(C)C(=O)CC[C@]4(C)C3=CC[C@]12C)C(C)C [POLYPORENIC ACID B] in your answer.
4.59

Name the recorded pIC50 of the item `CC(C)=CCC[C@@H](C(=O)O)[C@H]1[C@H](O)C[C@@]2(C)C3=CC[C@H]4C(C)(C)[C@@H](O)CC[C@]4(C)C3=CC[C@]12C` in your answer.
< 4.40

Name the recorded pIC50 of the item `C=C(CC[C@@H](C(=O)O)[C@H]1[C@H](O)C[C@@]2(C)[C@]34C=C[C@@]5(OO3)C(C)(C)[C@@H](OC(=O)CO)CC[C@]5(C)C4=CC[C@]12C)C(C)C` in your answer.
< 4.40

Name the recorded pIC50 of the item `C=C(CC[C@@H](C(=O)O)[C@H]1[C@H](O)C[C@@]2(C)C3=C(CC[C@]12C)[C@@]1(C)CC[C@H](O)C(C)(C)[C@@H]1CC3=O)C(C)C` in your answer.
< 4.40

Name the recorded pIC50 of the item C=C(CC[C@@H](C(=O)O)[C@H]1CC[C@@]2(C)C3=CC[C@H]4C(C)(C)[C@@H](O)CC[C@]4(C)C3=CC[C@]12C)C(C)C [DEHYDROEBURICOIC ACID] in your answer.
5.20

Name the recorded pIC50 of the item C=C(CC[C@@H](C(=O)O)[C@H]1[C@H](O)C[C@@]2(C)C3=CC[C@@H](C(=C)C)[C@](C)(CCC(=O)O)C3=CC[C@]12C)C(C)C [PORICOIC ACID A] in your answer.
< 4.40

Name the recorded pIC50 of the item `C=C(CC[C@@H](C(=O)O)[C@H]1[C@H](O)C[C@@]2(C)C3=CC=C4C(C)(C)C(=O)CC[C@]4(C)C3=CC[C@]12C)C(C)C` in your answer.
< 4.40

Name the recorded pIC50 of the item CC(C)=CCC[C@@H](C(=O)O)[C@H]1CC[C@@]2(C)C3=CC[C@H]4C(C)(C)[C@@H](O)CC[C@]4(C)C3=CC[C@]12C [DEHYDROTRAMETENOLIC ACID] in your answer.
4.88

Name the recorded pIC50 of the item C=C(CC[C@@H](C(=O)O)[C@H]1[C@H](O)C[C@@]2(C)C3=CCC4[C@](C)(CC[C@H](O)[C@]4(C)CO)C3=CC[C@]12C)C(C)C (stereo not given in full) in your answer.
< 4.40
